- Study Target: FGFR2 (Homo sapiens, UniProt P21802)
- Sequence (P21802 22-821): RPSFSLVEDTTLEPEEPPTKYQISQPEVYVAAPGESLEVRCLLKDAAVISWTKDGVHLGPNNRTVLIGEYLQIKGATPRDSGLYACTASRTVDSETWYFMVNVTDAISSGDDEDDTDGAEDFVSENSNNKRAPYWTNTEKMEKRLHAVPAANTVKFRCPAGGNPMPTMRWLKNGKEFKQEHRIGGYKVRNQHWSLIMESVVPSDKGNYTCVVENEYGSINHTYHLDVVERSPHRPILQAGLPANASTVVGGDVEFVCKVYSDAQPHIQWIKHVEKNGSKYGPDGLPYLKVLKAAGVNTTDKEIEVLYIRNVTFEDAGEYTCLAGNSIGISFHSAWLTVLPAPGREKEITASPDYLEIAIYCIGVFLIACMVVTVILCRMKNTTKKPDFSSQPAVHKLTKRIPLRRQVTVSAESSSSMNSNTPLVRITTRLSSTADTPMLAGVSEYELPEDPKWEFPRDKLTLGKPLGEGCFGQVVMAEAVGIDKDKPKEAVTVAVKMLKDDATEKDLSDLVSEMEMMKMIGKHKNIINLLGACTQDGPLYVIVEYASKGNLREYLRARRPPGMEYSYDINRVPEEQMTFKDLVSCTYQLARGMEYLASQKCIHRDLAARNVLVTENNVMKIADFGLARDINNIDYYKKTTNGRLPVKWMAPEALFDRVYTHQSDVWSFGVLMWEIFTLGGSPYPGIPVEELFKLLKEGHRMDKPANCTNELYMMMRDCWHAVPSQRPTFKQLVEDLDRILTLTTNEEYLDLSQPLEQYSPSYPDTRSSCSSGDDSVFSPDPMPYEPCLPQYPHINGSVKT

Compound: COc1cc(/C=C/C(=O)O)ccc1O [FA, 4-hydroxy-3-methoxycinnamic acid]
IC50: ~12.5 µM

====

- Study Target: UniProtKB P11362
- Sequence (P11362 478-767 limits assumed): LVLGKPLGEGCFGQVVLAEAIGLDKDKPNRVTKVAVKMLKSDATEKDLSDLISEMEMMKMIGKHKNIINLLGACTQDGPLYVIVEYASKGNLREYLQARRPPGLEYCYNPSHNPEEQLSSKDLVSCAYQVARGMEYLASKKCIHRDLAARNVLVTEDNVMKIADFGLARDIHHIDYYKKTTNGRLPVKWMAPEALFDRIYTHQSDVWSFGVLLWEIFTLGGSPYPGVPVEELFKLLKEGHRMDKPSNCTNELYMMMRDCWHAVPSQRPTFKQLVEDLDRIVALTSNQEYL
Readout Type: IC50

Compound: COc1cc(/C=C/C(=O)O)ccc1O [FA, 4-hydroxy-3-methoxycinnamic acid]
Readout Type: IC50
Test Result: ~3.78 µM
